# System: MCF7
# ASSAY PROTOCOL: Growth inhibition of human MCF7 cells incubated for 48 hrs by sulforhodamine B assay
# Format: functional, cell-based
# SETTINGS: MCF7, 48 h
ENDPOINT NAME: IC50 (nM)
Answers are plain numbers, in nM.

Incoming: Reported IC50, compound COc1cc(Cl)cc(-c2nn(-c3cccc(NC(=O)Nc4cc(C(F)(F)F)cc(C(F)(F)F)c4)c3)cc2-c2ccncc2)c1 : ____
Outgoing: 380

----------
# Tested on: HT-29
# ASSAY PROTOCOL: Growth inhibition of human HT-29 cells incubated for 48 hrs by sulforhodamine B assay
# Type: functional, cell-based
# SETTINGS: HT-29, 48 h, read-out: pLC50 (the source's name) (converted)
Answer each item with its documented CC50.

These recorded examples may help you get a feel for the data.
COc1cc(Cl)cc(-c2nn(-c3cccc(NC(=O)Nc4cccc(C(F)(F)F)c4)c3)cc2-c2ccncc2)c1 : 26.3 µM
O=C(Nc1cccc(-n2cc(-c3ccncc3)c(-c3cc(O)cc(Cl)c3)n2)c1)c1cc(C(F)(F)F)cc(C(F)(F)F)c1 : > 100 µM
COc1cc(Cl)cc(-c2nn(-c3cccc(NC(=O)c4ccc(N5CCOCC5)c(C(F)(F)F)c4)c3)cc2-c2ccncc2)c1 : > 100 µM

Switching to the query record.
Incoming: Reported CC50, compound O=C(Nc1cccc(-n2cc(-c3ccncc3)c(-c3cc(O)cc(Cl)c3)n2)c1)c1ccc(N2CCOCC2)c(C(F)(F)F)c1 : ____
Outgoing: > 100 µM

----------
# Test system: NCI-H226
# ASSAY PROTOCOL: Growth inhibition of human NCI-H226 cells incubated for 48 hrs by sulforhodamine B assay
# Format: functional, cell-based
# SETTINGS: NCI-H226, 48 h
ENDPOINT NAME: IC50 (nM)
Give bare numbers, in nM.

Incoming: Reported IC50, compound CNC(=O)c1cc(Oc2ccc(NC(=O)Nc3ccc(Cl)c(C(F)(F)F)c3)cc2)ccn1 : ____
Outgoing: 2000

----------
Answer each item with its documented growth at 0.01 µM.
# Tested on: NCI/ADR-RES
# ASSAY PROTOCOL: Growth inhibition of human NCI/ADR-RES cells assessed as cell growth at 0.01 uM incubated for 48 hrs by sulforhodamine B assay relative to control
# Format: functional
# SETTINGS: read-out: Activity
Give bare numbers, in %.

These recorded examples may help you get a feel for the data.
COc1cc(Cl)cc(-c2nn(-c3cccc(NC(=O)Nc4cc(C(F)(F)F)cc(C(F)(F)F)c4)c3)cc2-c2ccncc2)c1 : 99
COc1cc(Cl)cc(-c2nn(-c3cccc(NC(=O)Nc4cccc(C(F)(F)F)c4)c3)cc2-c2ccncc2)c1 : 100
O=C(Nc1cccc(-n2cc(-c3ccncc3)c(-c3cc(O)cc(Cl)c3)n2)c1)c1cc(C(F)(F)F)cc(C(F)(F)F)c1 : 101

Fill in growth at 0.01 µM for each of the 2 compounds listed.
1. COc1cc(Cl)cc(-c2nn(-c3cccc(NC(=O)Nc4ccc(Cl)c(Cl)c4)c3)cc2-c2ccncc2)c1
2. O=C(Nc1cccc(-n2cc(-c3ccncc3)c(-c3cc(O)cc(Cl)c3)n2)c1)c1ccc(N2CCOCC2)c(C(F)(F)F)c1

Outgoing:
1. 97
2. 101

----------
# System: LOX IMVI
# ASSAY PROTOCOL: Growth inhibition of human LOXIMVI cells incubated for 48 hrs by sulforhodamine B assay
# Format: functional
# SETTINGS: read-out: TGI
I'd appreciate it if you marked entries Condition met when TGI is lower than 30 µM and Condition not met when it is not.

COc1cc(Cl)cc(-c2nn(-c3cccc(NC(=O)Nc4cccc(C(F)(F)F)c4)c3)cc2-c2ccncc2)c1 : Condition not met
COc1cc(Cl)cc(-c2nn(-c3cccc(NC(=O)Nc4ccc(Cl)c(C(F)(F)F)c4)c3)cc2-c2ccncc2)c1 : Condition not met
O=C(Nc1cccc(-n2cc(-c3ccncc3)c(-c3cc(O)cc(Cl)c3)n2)c1)Nc1ccc(Cl)c(C(F)(F)F)c1 : Condition not met
COc1cc(Cl)cc(-c2nn(-c3cccc(NC(=O)Nc4ccc(Cl)c(Cl)c4)c3)cc2-c2ccncc2)c1 : Condition met

Next item in the queue.
Incoming: Quick check: does O=C(Nc1cccc(-n2cc(-c3ccncc3)c(-c3cc(O)cc(Cl)c3)n2)c1)c1cc(C(F)(F)F)cc(C(F)(F)F)c1 have TGI under 30 µM?
Outgoing: Condition met

----------
Answer each item with its documented growth at 0.1 µM.
# Test system: SF-295
# ASSAY PROTOCOL: Growth inhibition of human SF295 cells assessed as cell growth at 0.1 uM incubated for 48 hrs by sulforhodamine B assay relative to control
# Type: functional
# SETTINGS: SF-295, 48 h, read-out: Activity
Give bare numbers, in %.

These recorded examples may help you get a feel for the data.
COc1cc(Cl)cc(-c2nn(-c3cccc(NC(=O)Nc4ccc(Cl)c(Cl)c4)c3)cc2-c2ccncc2)c1 : 57
COc1cc(Cl)cc(-c2nn(-c3cccc(NC(=O)Nc4cccc(C(F)(F)F)c4)c3)cc2-c2ccncc2)c1 : 57
COc1cc(Cl)cc(-c2nn(-c3cccc(NC(=O)Nc4ccc(Cl)c(C(F)(F)F)c4)c3)cc2-c2ccncc2)c1 : 98

Switching to the query record.
Incoming: Reported growth at 0.1 µM, compound COc1cc(Cl)cc(-c2nn(-c3cccc(NC(=O)c4cccc(C(F)(F)F)c4)c3)cc2-c2ccncc2)c1 : ____
Outgoing: 90

----------
# System: NCI/ADR-RES
# ASSAY PROTOCOL: Growth inhibition of human NCI/ADR-RES cells incubated for 48 hrs by sulforhodamine B assay
# Assay type: functional, cell-based
# SETTINGS: read-out: pTGI (converted)
Answer each item with its documented TGI.

These recorded examples may help you get a feel for the data.
O=C(Nc1cccc(-n2cc(-c3ccncc3)c(-c3cc(O)cc(Cl)c3)n2)c1)c1cc(C(F)(F)F)cc(C(F)(F)F)c1 : > 100 µM
COc1cc(Cl)cc(-c2nn(-c3cccc(NC(=O)Nc4cc(C(F)(F)F)cc(C(F)(F)F)c4)c3)cc2-c2ccncc2)c1 : 10 µM
O=C(Nc1cccc(-n2cc(-c3ccncc3)c(-c3cc(O)cc(Cl)c3)n2)c1)Nc1ccc(Cl)c(C(F)(F)F)c1 : 23.4 µM
COc1cc(Cl)cc(-c2nn(-c3cccc(NC(=O)Nc4cccc(C(F)(F)F)c4)c3)cc2-c2ccncc2)c1 : 7.76 µM

Switching to the query record.
Incoming: Reported TGI, molecule O=C(Nc1cccc(-n2cc(-c3ccncc3)c(-c3cc(O)cc(Cl)c3)n2)c1)Nc1ccc(Cl)c(Cl)c1 : ____
Outgoing: > 100 µM

----------
# Tested on: MOLT-4
# ASSAY PROTOCOL: Growth inhibition of human MOLT4 cells incubated for 48 hrs by sulforhodamine B assay
# Assay type: functional, cell-based
# SETTINGS: MOLT-4, 48 h, read-out: TGI
ENDPOINT NAME: TGI (µM)
Numbers only, in µM.

These recorded examples may help you get a feel for the data.
COc1cc(Cl)cc(-c2nn(-c3cccc(NC(=O)Nc4ccc(Cl)c(C(F)(F)F)c4)c3)cc2-c2ccncc2)c1 : 45.5
COc1cc(Cl)cc(-c2nn(-c3cccc(NC(=O)Nc4ccc(Cl)c(Cl)c4)c3)cc2-c2ccncc2)c1 : 61.3
O=C(Nc1cccc(-n2cc(-c3ccncc3)c(-c3cc(O)cc(Cl)c3)n2)c1)Nc1ccc(Cl)c(Cl)c1 : 51.8

Incoming: Reported TGI, molecule COc1cc(Cl)cc(-c2nn(-c3cccc(NC(=O)Nc4cc(C(F)(F)F)cc(C(F)(F)F)c4)c3)cc2-c2ccncc2)c1 : ____
Outgoing: 1.64

----------
# Test system: NCI-H460
# ASSAY PROTOCOL: Growth inhibition of human NCI-H460 cells assessed as cell growth at 100 uM incubated for 48 hrs by sulforhodamine B assay relative to control
# Type: functional
# SETTINGS: NCI-H460, 48 h, read-out: Activity
ENDPOINT NAME: growth at 100 µM (%)
Answers are plain numbers, in %.

These recorded examples may help you get a feel for the data.
COc1cc(Cl)cc(-c2nn(-c3cccc(NC(=O)Nc4cc(C(F)(F)F)cc(C(F)(F)F)c4)c3)cc2-c2ccncc2)c1 : -84
O=C(Nc1cccc(-n2cc(-c3ccncc3)c(-c3cc(O)cc(Cl)c3)n2)c1)c1cc(C(F)(F)F)cc(C(F)(F)F)c1 : 1
O=C(Nc1cccc(-n2cc(-c3ccncc3)c(-c3cc(O)cc(Cl)c3)n2)c1)Nc1ccc(Cl)c(C(F)(F)F)c1 : -52

Fill in growth at 100 µM for each of the 2 compounds listed.
1. O=C(Nc1cccc(-n2cc(-c3ccncc3)c(-c3cc(O)cc(Cl)c3)n2)c1)Nc1ccc(Cl)c(Cl)c1
2. COc1cc(Cl)cc(-c2nn(-c3cccc(NC(=O)Nc4ccc(Cl)c(Cl)c4)c3)cc2-c2ccncc2)c1

Outgoing:
1. -48
2. -8
